Target: Protein kinase C eta type (Homo sapiens)
Conditions: at 1 µM
Measured residual activity values are reported for all entries that follow.
Give a bare numeral; the unit % is implied.

// worked examples, residual activity included
O=C1NC(=O)c2cc(Nc3ccc(F)cc3)c(Nc3ccc(F)cc3)cc21 | 91
COc1cc2ncnc(Nc3ccc(NC(=O)c4ccccc4)cc3)c2cc1OC | 137
Ic1cccc(CSc2nnc(-c3ccncc3)o2)c1 | 59
Cc1ccc(S(=O)(=O)/C=C/C#N)cc1 | 80
O=C(O)c1ccc2c3c1cccc3c(=O)n1c3ccccc3nc21 | 76

Record summary for Nc1ccc2ncnc(NCCc3ccc(Oc4ccccc4)cc3)c2c1 : reported residual activity = 102

Record summary for Cc1nc2cc3nc(-c4cccs4)cnc3cc2n1C : reported residual activity = 107

Record summary for O=C1Nc2cc(Br)ccc2/C1=C1/Nc2ccccc2/C1=N\O : reported residual activity = 76

Record summary for NC(=O)c1ccc2[nH]c(-c3ccc(Oc4ccc(Cl)cc4)cc3)nc2c1 : reported residual activity = 86

Record summary for Cn1nc2c3c(cccc31)C(=O)c1ccccc1-2 : reported residual activity = 88
